System: OVCAR-8
protocol-description: NCI tumour cell line growth inhibition, 48 h
Activity calls are given as the source filed them. Cut-off read from the data, not from the text of the source: active = GI50 up to about 1.1 µM and inactive = higher.
Answer with one of the outcomes given here: t (active), f (inactive)

molecule	assigned-label
COC(=O)C1=CO[C@@H](OC2OC(CO)C(O)C(O)C2O)[C@H]2[C@@H](C)[C@@H](O)[C@@H](O)[C@@H]12 (stereo partly specified)	f

Task: What was the test verdict on C[Si](C)(C)/C=C/CN1C(=O)CCC1O (stereo unspecified) ?
Output: f

Task: What was the test verdict on CC1NOC(NS(=O)(=O)c2ccc(/N=N/c3c(O)c(C(=O)O)cc4ccccc34)cc2)C1C (stereo unspecified) ?
Output: f

Task: What was the test verdict on `C=C1C(=O)O[C@H]2[C@H](OC(C)=O)[C@@H](C)CCC/C(C)=C/CC[C@@]3(C)O[C@@H]3C[C@@H]12` ?
Output: t

Task: What was the test verdict on CC(C)C1=CC(=O)C(C)(C2C(O)CC3(C)C4CC=C5C(CCC(OC6OC(CO)C(O)C(O)C6OC6OC(C)C(O)C(O)C6O)C5(C)C)C4(C)C(=O)CC23C)O1 (stereo unspecified) ?
Output: f

Task: What was the test verdict on `O=C(N/C(=C\c1c(O)ccc2ccccc12)c1nc2ccccc2[nH]1)c1ccccc1` ?
Output: f
